The measurements presented in this section are drawn from patent US11999727B2.

Biological target: PRMT5 (Homo sapiens)
Construct: purchased Viva (custom protein)
Assay: PRMT5 biochemical IC50 assay with SAM as cofactor
Conditions: PRMT5, SAM as cofactor; read-out: SAM IC50
pIC50: −log10 of the molar value.
quantity: pIC50

Use the examples below as a reference point.
- C[C@@H]1CC[C@@H](c2ccc(NS(C)(=O)=O)cc2)N(C(=O)C(=O)Nc2cncc(C(N)=O)c2)C1 (single isomer, unassigned): < 6.30
- COc1ncc(NC(=O)C(=O)N2C[C@@H](C)CC[C@@H]2c2ccc3sccc3c2)cc1C(N)=O (single isomer, unassigned): > 7.30

Looking for the measured pIC50 of Cc1cc(NC(=O)C(=O)N2C[C@H](C)CC[C@H]2c2ccc3[nH]nc(N)c3c2)cnc1C (single isomer, unassigned) , can you help?
6.30 to 7.30

# lookup: pIC50 of Cc1cc(NC(=O)C(=O)N2C[C@@H](C)CC[C@@H]2c2cccc3[nH]cnc23)cnc1N (single isomer, unassigned)
< 6.30

---

Biological target: PRMT5 (Homo sapiens, UniProt O14744)
Construct: purchased Viva (custom protein)
Sequence (O14744 whole entry): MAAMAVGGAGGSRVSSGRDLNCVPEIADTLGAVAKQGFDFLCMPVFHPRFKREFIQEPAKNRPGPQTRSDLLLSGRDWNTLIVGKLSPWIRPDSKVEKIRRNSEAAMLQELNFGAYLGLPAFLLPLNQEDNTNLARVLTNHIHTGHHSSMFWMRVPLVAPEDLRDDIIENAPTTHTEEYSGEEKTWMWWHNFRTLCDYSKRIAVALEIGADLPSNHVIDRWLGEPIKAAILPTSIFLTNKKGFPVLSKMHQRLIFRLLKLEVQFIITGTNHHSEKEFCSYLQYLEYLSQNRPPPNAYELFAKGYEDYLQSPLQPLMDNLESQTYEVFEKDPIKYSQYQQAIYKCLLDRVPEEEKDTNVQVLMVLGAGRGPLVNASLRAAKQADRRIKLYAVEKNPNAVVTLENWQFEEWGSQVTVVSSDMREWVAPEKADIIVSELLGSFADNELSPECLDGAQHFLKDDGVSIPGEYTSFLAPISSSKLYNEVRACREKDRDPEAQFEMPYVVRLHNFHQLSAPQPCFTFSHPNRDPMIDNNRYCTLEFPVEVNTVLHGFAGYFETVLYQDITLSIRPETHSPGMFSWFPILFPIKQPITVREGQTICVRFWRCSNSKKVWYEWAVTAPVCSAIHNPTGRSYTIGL
Sequence (Q9BQA1 whole entry partner): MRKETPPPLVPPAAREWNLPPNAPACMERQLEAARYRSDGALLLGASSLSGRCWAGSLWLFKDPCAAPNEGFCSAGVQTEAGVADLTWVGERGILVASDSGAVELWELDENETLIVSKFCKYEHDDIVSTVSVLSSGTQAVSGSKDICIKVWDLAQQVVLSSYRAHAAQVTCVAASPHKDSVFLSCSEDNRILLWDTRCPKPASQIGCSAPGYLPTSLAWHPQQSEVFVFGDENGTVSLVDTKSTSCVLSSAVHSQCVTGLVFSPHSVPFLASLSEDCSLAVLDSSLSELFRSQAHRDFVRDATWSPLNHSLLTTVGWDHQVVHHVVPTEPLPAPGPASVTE
Assay: PRMT5 biochemical IC50 assay with SAM as cofactor
Settings: PRMT5, SAM as cofactor; read-out: SAM IC50
pIC50: −log10 of the molar value.
pIC50 listing for selected molecules.

- C[C@@H]1CCC[C@H]2CN(C(=O)C(=O)Nc3cncc(C(N)=O)c3)CC[C@H]21 (racemic) [Compound 515]: 6.30 to 7.30

Endpoint output: pIC50 of CCc1cc(NC(=O)C(=O)N2C[C@@H](C)CC[C@@H]2c2ccc3c(c2)CNC3=O)cnc1N (single isomer, unassigned) [Compound 696] . Value?
6.30 to 7.30

Which pIC50 value is on record for Cc1cc(NC(=O)C(=O)N2C[C@H](C)CC[C@H]2c2ccc3sc(C(F)(F)F)nc3c2)cnc1N (racemic) [Compound 861] ?
6.30 to 7.30

---

Target: PRMT5 (Homo sapiens, UniProt O14744)
Construct: purchased Viva (custom protein)
Experiment: PRMT5 biochemical IC50 assay with SAM as cofactor
Conditions: PRMT5, SAM as cofactor; read-out: SAM IC50
pIC50: −log10 of the molar value.
quantity: pIC50

For orientation, consider the following solved cases.
• C[C@@H]1CC[C@@H](c2ccc3c(c2)CNC3=O)N(C(=O)C(=O)Nc2cncc(C(N)=O)c2)C1 (single isomer, unassigned) [Compound 740] = 6.30 to 7.30
• C[C@H]1CC[C@H](c2ccc(-c3nccs3)cc2)N(C(=O)C(=O)Nc2cncc(C(N)=O)c2)C1 (single isomer, unassigned) [Compound 772] = < 6.30

Using the record for NC(=O)c1cncc(NC(=O)C(=O)N2C[C@H](OC(F)(F)F)CC[C@H]2c2ccccc2)c1 (racemic) [Compound 411] , report its pIC50.
< 6.30

What measured pIC50 goes with COc1ncc(NC(=O)C(=O)N2C[C@@H](C)CC[C@@H]2c2ccc3sc([C@@H]4CCN(C)C4)nc3c2)cc1C(N)=O (racemic) [Compound 1278] ?
> 7.30

Recorded pIC50 of C[C@@H]1CN(C(=O)C(=O)Nc2cncc(C(N)=O)c2)[C@@H](c2ccccc2)CC1(F)F (single isomer, unassigned) [Compound 473] , please.
< 6.30

Item under review: Cc1cc(NC(=O)C(=O)N2C[C@@H](C)CC[C@@H]2c2ccc(C(F)(F)F)c(Cl)c2)cnc1N (single isomer, unassigned) [Compound 703] . Reported pIC50?
6.30 to 7.30

Given the entry C[C@@H]1CC[C@@H](c2ccc3c(c2)OCC3)N(C(=O)C(=O)Nc2cncc(C(N)=O)c2)C1 (racemic) [Compound 405] , report its measured pIC50.
6.30 to 7.30
